targetUnderTest: Adenosine A2 receptor (Rattus norvegicus, UniProt P29276+P30543)
Format: cell membranes, Membrane
observable: Ki (nM)
Lab book: enter the figure in nM, no units written.

The examples below pair each entry with its known result.
CCCn1c(=O)c2nc(C(c3ccc(F)cc3)C3CC3)[nH]c2n(CCC)c1=O (stereo unspecified) | 1400
CCCn1c(=O)c2nc(C(C)CC)[nH]c2n(CCC)c1=O (stereo unspecified) | 1200
CCCn1c(=O)c2nc(C(CC)Oc3ccccc3)[nH]c2n(CCC)c1=O (stereo unspecified) | 3300
CCCn1c(=O)c2nc(C(C)Cc3ccccc3)[nH]c2n(CCC)c1=O (stereo unspecified) | 480
CCCn1c(=O)c2nc(C(CC)CC)[nH]c2n(CCC)c1=O | 570

Prompt line: // lookup Ki for CCCn1c(=O)c2nc(C(C)C)[nH]c2n(CCC)c1=O
Response line: 1500

Prompt line: I'd like to know its Ki. The compound in question is CCCn1c(=O)c2nc(C(c3ccccc3)C3CCCC3)[nH]c2n(CCC)c1=O (stereo unspecified)
Response line: 4000

Prompt line: Field request: Ki | item: CCCn1c(=O)c2nc(C(C)Cc3ccc(OC)cc3)[nH]c2n(CCC)c1=O (stereo unspecified)
Response line: 580

====

targetUnderTest: Adenosine receptor A1 (Cavia porcellus)
testDetails: Binding affinity carried out with [3H]cyclohexyladenosine in guinea pig forebrain membranes against adenosine A1 receptor
Type: cell membranes, Brain membranes
Overview of recorded pKi for various molecules
Would you please state pKi, meaning minus log10 of the concentration in mol/L, as a bare number?

Use the examples below as a reference point.
CCCn1c(=O)c2[nH]c(C(c3ccccc3)C3CCCC3)nc2n(CCC)c1=O (configuration not stated) | 6.40
CCCn1c(=O)c2nc(C(C)C)[nH]c2n(CCC)c1=O | 7.31
CCCn1c(=O)c2[nH]c(C(C)Cc3ccccc3)nc2n(CCC)c1=O (configuration not stated) | 6.59
CCCn1c(=O)c2nc(C(CC)Oc3ccccc3)[nH]c2n(CCC)c1=O (configuration not stated) | 6.05
CCCn1c(=O)c2nc(C(c3ccc(OC)cc3)C3CC3)[nH]c2n(CCC)c1=O (configuration not stated) | 6.60

// below: pKi requested for another molecule
Prompt line: Test system Adenosine receptor A1 (Cavia porcellus); read-out pKi; what value for CCCn1c(=O)[nH]c(=O)c2[nH]c(C(C3CC3)C3CC3)nc21 ?
Response line: 5.89

====

Measured log10(Ki), listed per entry.
targetUnderTest: Adenosine receptor A1 (Cavia porcellus, UniProt P47745)
Sequence (P47745 whole entry): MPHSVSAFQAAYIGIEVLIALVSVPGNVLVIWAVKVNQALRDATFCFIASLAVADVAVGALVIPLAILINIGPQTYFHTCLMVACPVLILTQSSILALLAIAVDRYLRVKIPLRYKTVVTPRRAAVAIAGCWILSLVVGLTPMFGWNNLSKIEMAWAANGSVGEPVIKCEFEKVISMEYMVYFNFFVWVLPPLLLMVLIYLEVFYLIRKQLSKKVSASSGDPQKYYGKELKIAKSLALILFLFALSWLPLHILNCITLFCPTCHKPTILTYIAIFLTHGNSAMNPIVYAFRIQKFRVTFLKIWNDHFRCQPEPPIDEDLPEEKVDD
testDetails: Binding affinity carried out with [3H]cyclohexyladenosine in guinea pig forebrain membranes against adenosine A1 receptor
Type: cell membranes, Brain membranes
Base-10 log of Ki, unit nM.

Prompt line: Checklist item: log10(Ki) tested on Adenosine receptor A1 (Cavia porcellus, UniProt P47745), entry CCCCn1c(=O)c2nc(C(C3CC3)C3CC3)[nH]c2n(CCCC)c1=O , value?
Response line: 0.74

Prompt line: Item CCCn1c(=O)c2[nH]c(C(C)CC)nc2n(CCC)c1=O (stereo unspecified) with Adenosine receptor A1 (Cavia porcellus, UniProt P47745) - log10(Ki)?
Response line: 1.40

Prompt line: Form: Entry = CCCn1c(=O)c2c(nc(C(C3CC3)C3CC3)n2CC)n(CCC)c1=O | System = Adenosine receptor A1 (Cavia porcellus, UniProt P47745) | log10(Ki) = ____
Response line: 3.20
